Measured on: Regulator of G-protein signaling 16 (Homo sapiens) + Guanine nucleotide-binding protein G(o) subunit alpha (Homo sapiens) (UniProt O15492+P09471)
Sequence (O15492 whole entry, looked up): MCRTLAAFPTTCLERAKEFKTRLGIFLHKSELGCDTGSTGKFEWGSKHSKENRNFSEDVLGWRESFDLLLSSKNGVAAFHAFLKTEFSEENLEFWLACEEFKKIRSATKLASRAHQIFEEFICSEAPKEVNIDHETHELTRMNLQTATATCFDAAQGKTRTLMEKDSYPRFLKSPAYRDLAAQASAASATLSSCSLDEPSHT
Sequence (P09471 whole entry, looked up): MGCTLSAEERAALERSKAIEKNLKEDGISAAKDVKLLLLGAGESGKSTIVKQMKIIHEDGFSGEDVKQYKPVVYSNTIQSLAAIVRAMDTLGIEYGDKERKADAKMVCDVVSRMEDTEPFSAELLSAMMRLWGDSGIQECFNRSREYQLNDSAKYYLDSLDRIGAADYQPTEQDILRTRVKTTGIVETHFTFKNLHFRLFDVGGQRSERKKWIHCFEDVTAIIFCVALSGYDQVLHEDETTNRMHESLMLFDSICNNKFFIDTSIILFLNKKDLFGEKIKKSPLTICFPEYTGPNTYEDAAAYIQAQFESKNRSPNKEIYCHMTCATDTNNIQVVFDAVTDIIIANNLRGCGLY
Protocol: modulators of RGS16 binding to Galphao, primary screen, biochemical, human proteins, multiplexed bead flow cytometry (AID 1441);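 note: Galphao activated by GDP with aluminum fluoride before binding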
Test context: bead-based flow cytometry RGS16-Galphao binding, fluorescence; at 10 µM; actives lie on both sides
The campaign covered roughly 220,000 compounds. About 830 (0.38%) were called active. The rule behind the calls is not given here. This is one part of a sample in which actives are shown more often than they occur.
In this exercise, the only acceptable responses are active, inactive

These recorded examples may help you get a feel for the data.
O=C(COC(=O)/C=C/c1ccc2c(c1)OCO2)NC1CCS(=O)(=O)C1 (configuration not stated) = inactive
COc1ccc(/C=N/n2nnnc2N)cc1OC = inactive
CCOC(=O)CSc1nc2c(c(=O)n(Cc3ccccc3Cl)c(=O)n2C)n1C = active
O=C(OCC(=O)N1CCN(C(=O)c2ccco2)CC1)c1ccccc1Cc1ccccc1 = inactive
COc1cccc(OC)c1OCCN1CCN(C(=O)c2ccco2)CC1 = inactive
COc1cc(/C=C/C(=O)N2c3ccccc3Sc3ccc(C(F)(F)F)cc32)cc(OC)c1OC = inactive
NC(=O)CC(NC(=O)Cc1cccc2ccccc12)c1ccc(NCc2cc(F)ccc2F)c([N+](=O)[O-])c1 (configuration not stated) = inactive
COC(=O)c1c(C)[nH]c(C)c1-c1ccc([N+](=O)[O-])cc1 = inactive

With those in mind, consider the next compound.
# input Hey, what did the test say about Clc1ccc2nc(CSc3ccccc3)cn2c1 ?
# output inactive

* * *

Measured on: Regulator of G-protein signaling 16 (Homo sapiens) + Guanine nucleotide-binding protein G(o) subunit alpha (Homo sapiens) (UniProt O15492+P09471)
Protocol: modulators of RGS16 binding to Galphao, primary screen, biochemical, human proteins, multiplexed bead flow cytometry (AID 1441);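 note: Galphao activated by GDP with aluminum fluoride before binding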
Test context: bead-based flow cytometry RGS16-Galphao binding, fluorescence; at 10 µM; actives lie on both sides
Hit rate of the full screen: of about 220,000 compounds, about 830 (0.38%) were called active. Many of the other results were omitted from the sample, so actives are more common in it than they were.
Measured endpoint: binding response (% of control)

CC1(C)C=C2[C@H]3CC[C@@H]4[C@@]5(C)CCC(=O)C(C)(C)[C@@H]5CC[C@@]4(C)[C@]3(C)CC[C@@]2(C(=O)O)CC1 = 267% [activator] (active)
Cc1c(C(=O)Nc2ccccc2Cl)oc2ccc(S(=O)(=O)N3CCC4(CC3)OCCO4)cc12 = 107% (inactive)
CCC(C)(C)NC(=O)C(c1cccc(OC)c1OC)N(CC(C)C)C(=O)CCC(=O)Nc1cc(C)on1 (configuration not stated) = 105% (inactive)
O=C(NCc1ccc(F)cc1)C1CCC(CNc2c(N3CCOCC3)c(=O)c2=O)CC1 (configuration not stated) = 3.97% (active)
O=C(COC(=O)c1ccncc1)c1ccccc1 = 104% (inactive)

# input Form field: reported binding response (% of control) of CC1Cc2ccccc2N1CC(=O)Nc1ccc(S(N)(=O)=O)cc1 (configuration not stated)
# output 93.2% (inactive)

# input One more compound: O=C(NCc1ccccc1)c1ccc(S(=O)(=O)Nc2cccc(C(F)(F)F)c2)cc1
# output 80.9% (inactive)

# input Can you handle COc1ccc(C2CC(c3ccccc3)Nc3ncnn32)cc1 (configuration not stated) next?
# output 103% (inactive)

# input Request: Nc1ccccc1C(=O)NC1CCCCNC1=O (configuration not stated)
# output 95.3% (inactive)

# input Next: O=C(CSc1nnc(-c2cccs2)n1Cc1ccccc1)N1CCc2ccccc2C1
# output 101% (inactive)

# input // repeat for Cn1nc(C(C)(C)C)c([N+](=O)[O-])c1C(N)=O and report
# output 98.6% (inactive)

# input How about NCCCCCC(=O)N/N=C/c1ccc2nccnc2c1 ?
# output 105% (inactive)

* * *

Measured on: Regulator of G-protein signaling 16 (Homo sapiens) + Guanine nucleotide-binding protein G(o) subunit alpha (Homo sapiens) (UniProt O15492+P09471)
Protocol: modulators of RGS16 binding to Galphao, primary screen, biochemical, human proteins, multiplexed bead flow cytometry (AID 1441);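 note: Galphao activated by GDP with aluminum fluoride before binding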
Test context: bead-based flow cytometry RGS16-Galphao binding, fluorescence; at 10 µM; actives lie on both sides
The campaign covered roughly 220,000 compounds. About 830 (0.38%) were called active. This excerpt belongs to a sample that is enriched for actives.
Below, each entry is listed alongside its reported binding response (% of control).

Reference set, count: 10
O=C(NCCc1ccccc1)/C(=C\c1ccc([N+](=O)[O-])cc1)NC(=O)c1ccccc1 = 101% (inactive)
CCCc1cc(=S)n2c([nH]c3ccccc32)c1C#N = 97.3% (inactive)
Cc1cc(OCCN2CCCC2)cc(C(C)C)c1 = 93.3% (inactive)
CSCC[C@H](NC(=O)CCCn1nnc2ccccc2c1=O)C(=O)O = 104% (inactive)
Cc1ccc(-n2c(SCC(=O)Nc3ncc(Cl)cc3Cl)nc3ccccc32)cc1 = 13.7% (active)
O=C(/C=C/c1ccco1)Nc1cccc(-c2nc3ccccc3[nH]2)c1 = 98.3% (inactive)
CCC(C)NC(=O)C1c2ccccc2Oc2ccccc21 (centres undefined) = 103% (inactive)
O=C(Cc1cccs1)Nc1cccc(-c2nc3ccccc3[nH]2)c1 = 97.3% (inactive)
O=S(=O)(c1ccccc1)N1CN(Cc2ccc(F)cc2)c2nc3ccccc3nc21 = 100% (inactive)
CC(C)(C)C1CCC(=NNC(=O)c2cc(-c3ccccc3)n[nH]2)CC1 (centres undefined) = 85.9% (inactive)

# input Value lookup for binding response (% of control); key = COc1ccc(CN(Cc2ccc(OC)cc2)C(=O)c2cccs2)cc1
# output 99% (inactive)

# input Next compound: Cc1cccc(CN2CCN(Cc3cnn(-c4ccccc4F)c3)CC2CCO)n1 (centres undefined)
# output 101% (inactive)

# input Field entry: CCOc1cc(CNCc2ccccn2)ccc1OCC(=O)NC(C)(C)C
# output 103% (inactive)

# input Now consider O=C(Nc1cccnc1Oc1ncnc2cc(Cl)ccc12)c1ccc(F)cc1 and answer again.
# output 102% (inactive)

* * *

Measured on: Regulator of G-protein signaling 16 (Homo sapiens) + Guanine nucleotide-binding protein G(o) subunit alpha (Homo sapiens) (UniProt O15492+P09471)
Protocol: modulators of RGS16 binding to Galphao, primary screen, biochemical, human proteins, multiplexed bead flow cytometry (AID 1441);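 note: Galphao activated by GDP with aluminum fluoride before binding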
Test context: bead-based flow cytometry RGS16-Galphao binding, fluorescence; at 10 µM; actives lie on both sides
Screen size: about 220,000 compounds; about 830 (0.38%) were called active. No rule for the calls is given here. Only a selection was taken, and actives are over-represented in it overall.
Use one of these outcomes when replying: active, inactive

CN1CCN(c2ccc(CNS(=O)(=O)c3cccc(F)c3)cc2)CC1 = inactive
Cc1ccc(-n2c(Cc3cccs3)nnc2SCC(=O)OC(C)C)cc1 = inactive
COP1(=O)C[C@@H](O)[C@@H](O)[C@@H](COCc2ccccc2)O1 (some centres undefined) = inactive
C/C(=N\NS(=O)(=O)c1ccc(Br)cc1)c1cccs1 = active
O=S(=O)(NN=C1CCCCCCC1)c1ccc(Br)cc1 = inactive

# input Hey, what did the test say about O=C(CSc1cccc[n+]1[O-])c1ccc(-c2ccccc2)cc1 ?
# output inactive

# input Can you check Cn1c(CCCOc2ccc(Cl)cc2Cl)n[nH]c1=S next?
# output inactive

# input Also CN1C=CC=C/C1=C1\SC(=S)N(Cc2ccccc2)C1=O , if possible.
# output inactive

# input Queued: COc1ccc(CCNC(=O)C(=O)Nc2ccc3nc4n(c(=O)c3c2)CCCCC4)cc1OC
# output inactive

# input // query: O=C(NNC(=S)NC1CCCCC1)c1ccccc1Cl
# output inactive

* * *

Quick list: binding response (% of control) per entry.
Measured on: Regulator of G-protein signaling 16 (Homo sapiens) + Guanine nucleotide-binding protein G(o) subunit alpha (Homo sapiens) (UniProt O15492+P09471)
Protocol: modulators of RGS16 binding to Galphao, primary screen, biochemical, human proteins, multiplexed bead flow cytometry (AID 1441);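 note: Galphao activated by GDP with aluminum fluoride before binding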
Test context: bead-based flow cytometry RGS16-Galphao binding, fluorescence; at 10 µM; actives lie on both sides
About 830 (0.38%) of roughly 220,000 compounds were called active. This is one part of a sample in which actives are shown more often than they occur.

In the examples that follow, each entry is paired with its recorded binding response (% of control).
Cc1ccc(Cn2c(SCC(=O)N/N=C/c3ccccc3OCC(=O)O)nc3ccccc32)cc1 = 99.5% (inactive)
CC(=O)NCCn1c(SCC(=O)Nc2ccc(C)cc2)nc2ccccc2c1=O = 197% (inactive)
CCOc1ccc(NC(=O)CSc2nc3ccccc3c(=O)n2Cc2cccs2)cc1 = -1.24% (active)
CC(=O)c1sc(NC(=O)C2=NN(c3ccccc3)C(=O)CC2)nc1C = 102% (inactive)
COc1ccc(-c2nn(-c3ccccc3)cc2C(=O)Nc2nc(CC(C)=O)ns2)cc1 = 95.8% (inactive)

# input Quick check: binding response (% of control) of CCOC(=O)C1Sc2[nH]c(=O)sc2C(c2ccc(Cl)cc2)C1C(=O)OCC (stereo not given) ?
# output -39.2% (active)

# input Again, but for CCc1ccc(NC(=O)CSc2nc3ccccc3c(=O)n2CCN2CCOCC2)cc1
# output 97.8% (inactive)

# input And for CC1CCN(Cc2nc(-c3ccc(Cl)cc3)no2)CC1 ?
# output 108% (inactive)

# input Also need CCOC(=O)C1=C(C)NC(=O)N(C(C)=O)C1c1ccc(Cl)cc1 (stereo not given) , thanks.
# output 109% (inactive)

# input Repeat for the following molecule: COc1ccc(Br)cc1/C=N/Nc1ccc(Cl)c(C(=O)O)c1
# output 103% (inactive)
